Numbers sourced from patent US20120316071A1.

Molecular target: T1, Recombinant Human DLL4 (delta-like protein 4) (human, UniProt Q9NR61 27-524)
T1 construct: also called rHuman DLL4
Test: ELISA, plate-coated DLL4, Fab 50 nM
ELISA signal at 50 nM Fab by entry:

Binder	ELISA signal at 50 nM Fab
Fab VH1-46_IGHD6-6*01_IGHJ1*01 S102A/S103P/S104F/H111F (APFF) & L6_IGKJ1*01 S28N/S30D/S31H S52T (Fab, V domains shown, Fab made in E. coli: VH in plasmid A (CH1, His6 and Flag tags), VL in plasmid C (kappa CL); also called H:APFF & L:NDH S52T; APFF / NDH/S52T) VH: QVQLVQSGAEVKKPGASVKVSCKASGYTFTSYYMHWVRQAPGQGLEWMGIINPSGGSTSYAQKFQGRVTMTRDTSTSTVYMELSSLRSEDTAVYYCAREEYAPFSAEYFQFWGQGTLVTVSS VL: EIVLTQSPATLSLSPGERATLSCRASQNVDHYLAWYQQKPGQAPRLLIYDATNRATGIPARFSGSGSGTDFTLTISSLEPEDFAVYYCQQRSNWPPWTFGQGTKVEIKR	0.49
Fab VH1-46_IGHD6-6*01_IGHJ1*01 S102A/S103P/S104F/H111F (APFF) & L6_IGKJ1*01 S28N/S30D/S31H S52L (Fab, V domains shown, Fab made in E. coli: VH in plasmid A (CH1, His6 and Flag tags), VL in plasmid C (kappa CL); also called H:APFF & L:NDH S52L; APFF / NDH/S52L) VH: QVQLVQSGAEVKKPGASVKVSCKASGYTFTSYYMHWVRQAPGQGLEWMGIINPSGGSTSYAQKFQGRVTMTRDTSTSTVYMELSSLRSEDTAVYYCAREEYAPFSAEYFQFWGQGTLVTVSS VL: EIVLTQSPATLSLSPGERATLSCRASQNVDHYLAWYQQKPGQAPRLLIYDALNRATGIPARFSGSGSGTDFTLTISSLEPEDFAVYYCQQRSNWPPWTFGQGTKVEIKR	0.546
Fab VH1-46_IGHD6-6*01_IGHJ1*01 S102A/S103P/S104F/H111F (APFF) & L6_IGKJ1*01 S28N/S30D/S31H (NDH) (Fab, V domains shown, Fab made in E. coli: VH in plasmid A (CH1, His6 and Flag tags), VL in plasmid C (kappa CL); also called H:APFF & L:NDH; APFF / NDH) VH: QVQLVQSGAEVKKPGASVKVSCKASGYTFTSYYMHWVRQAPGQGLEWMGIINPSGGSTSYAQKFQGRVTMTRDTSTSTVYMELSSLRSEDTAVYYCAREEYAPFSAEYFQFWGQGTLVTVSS VL: EIVLTQSPATLSLSPGERATLSCRASQNVDHYLAWYQQKPGQAPRLLIYDASNRATGIPARFSGSGSGTDFTLTISSLEPEDFAVYYCQQRSNWPPWTFGQGTKVEIKR	0.507
